Target: GST-PLK1 (Homo sapiens)
Sequence (P53350 whole entry): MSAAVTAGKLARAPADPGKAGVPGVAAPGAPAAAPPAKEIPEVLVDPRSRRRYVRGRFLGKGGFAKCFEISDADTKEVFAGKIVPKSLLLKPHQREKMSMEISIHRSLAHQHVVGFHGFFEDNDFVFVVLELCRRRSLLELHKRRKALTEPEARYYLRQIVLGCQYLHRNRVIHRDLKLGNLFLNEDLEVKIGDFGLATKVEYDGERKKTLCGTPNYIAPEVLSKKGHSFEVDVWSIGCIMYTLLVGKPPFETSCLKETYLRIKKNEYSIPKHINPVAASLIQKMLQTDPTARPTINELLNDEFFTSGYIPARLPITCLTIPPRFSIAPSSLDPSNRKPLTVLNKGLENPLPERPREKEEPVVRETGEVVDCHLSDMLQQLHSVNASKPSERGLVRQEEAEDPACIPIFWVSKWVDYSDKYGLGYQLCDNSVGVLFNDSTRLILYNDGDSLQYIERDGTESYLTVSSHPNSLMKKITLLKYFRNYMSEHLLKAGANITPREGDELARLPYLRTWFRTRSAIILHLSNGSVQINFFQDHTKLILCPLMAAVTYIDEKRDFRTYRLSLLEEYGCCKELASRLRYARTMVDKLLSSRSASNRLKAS
pIC50: −log10 of the molar value.
measurementKind: pIC50

# structureAsSmiles, result
data = [
    ("CC[C@@H]1C(=O)N(C)c2cnc(-c3cn[nH]c3-c3ccccn3)nc2N1C1CCCC1", "> 6.00"),
    ("CC[C@]12COCCN1c1nc(-n3ccnc3-c3nccs3)ncc1N(C)C2=O", "< 4.30"),
    ("CC[C@@H]1C(=O)N(C)c2cnc(-n3nccc3-c3ccccc3)nc2N1C(C)C", "> 6.00"),
]

# ---- query compound ----
Task: Give pIC50; test system GST-PLK1 (Homo sapiens); compound CC[C@@H]1C(=O)N(C)c2cnc(-n3cnc(C(N)=O)c3)nc2N1C1CCCC1
Result: > 6.00
